Assign pKd to each entry below.
tgt: T1, ARHGEF11, O15085
T1 sequence (O15085 42-136, limits assumed, looked up): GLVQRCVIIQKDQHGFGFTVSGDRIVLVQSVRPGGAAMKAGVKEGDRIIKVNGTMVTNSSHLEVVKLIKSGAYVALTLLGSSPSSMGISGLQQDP
measurement.description: holdup assay
Set-up: key: below the threshold = too weak to quantify, mostly under pKd 3.1 to 4
conditions.used: plain residues with an end cap or a label only (N-terminal biotin on a linker: ado-ado)

Request: Need pKd of NTANRRTTPV [CACNG2, Q9Y698] , thanks.
Response: 3.83

Request: What measured pKd goes with RDPPAEWTRV [PTPN18, Q99952] ?
Response: 4.38

Request: Entry DDASLPVSDV [PLEKHA1, Q9HB21] : reported pKd = ?
Response: 4.22

Request: Reported pKd, binder RFQQRMQTHV [KIRREL1, Q96J84] : ____
Response: 4.19

Request: Dear colleague, I am looking for the recorded pKd of the following binder: REEPDHSTEV [CCRL2, O00421]
Response: 4.77

Request: // pKd lookup, key: SFISKKEWYV [NECTIN1, Q15223]
Response: 4.41

Request: # lookup: pKd of ELSATVTTDC [TRIP6, Q15654]
Response: 4.61
